Quick reference for viability, T/C among some compounds
System: 857933-349-R-J2-PDC complex spheroid viability
METHOD SUMMARY: Anticancer human tumor 857933-349-R-J2-PDC patient-derived colon adenocarcinoma cell line growth inhibition [POLQ]
COND: second compound 1 µM; first compound 10 µM; stronger effect = lower value
Numbers only; they are read as %.

Data request: Consider the compound COc1cc2cc(C(=O)CCC(=O)O)sc2cc1OC + Cc1cccc(N(C)C(=O)C2C(O)CCN2c2nc(C)cc(C(F)(F)F)c2C#N)c1 . State its measured viability, T/C.
Data returned: 92.1

Data request: Consider the compound CCc1cc2c(N3CCc4c(cc(Cn5ccnc5)cc4-c4cn(C)nc4C(F)(F)F)C3=O)cc(C)nc2c(OC)n1 + Cc1cccc(N(C)C(=O)C2C(O)CCN2c2nc(C)cc(C(F)(F)F)c2C#N)c1 . State its measured viability, T/C.
Data returned: 61.9

Data request: Consider the compound CC1COCCN1c1cc(C2(S(C)(=N)=O)CC2)nc(-c2ccnc3[nH]ccc23)n1 (stereo unspecified) + Nc1ccc(C#CCN(C(=O)Cc2ncc(C(F)(F)F)cc2C(F)(F)F)c2ccc(F)cc2)nn1 . State its measured viability, T/C.
Data returned: 45.4

Data request: Consider the compound CC(C)n1c(=O)n(C)c2cnc3cc(F)c(-c4ccc(OCCCN5CCCCC5)nc4)cc3c21 + Cc1cccc(N(C)C(=O)C2C(O)CCN2c2nc(C)cc(C(F)(F)F)c2C#N)c1 . State its measured viability, T/C.
Data returned: 66.9

Data request: Consider the compound CCc1cc2c(N3CCc4c(cc(Cn5ccnc5)cc4-c4cn(C)nc4C(F)(F)F)C3=O)cc(C)nc2c(OC)n1 + Nc1ccc(C#CCN(C(=O)Cc2ncc(C(F)(F)F)cc2C(F)(F)F)c2ccc(F)cc2)nn1 . State its measured viability, T/C.
Data returned: 51.4

Data request: Consider the compound CCCS(=O)(=O)Nc1ccc(F)c(C(=O)c2c[nH]c3ncc(-c4ccc(Cl)cc4)cc23)c1F + Cc1cccc(N(C)C(=O)C2C(O)CCN2c2nc(C)cc(C(F)(F)F)c2C#N)c1 . State its measured viability, T/C.
Data returned: 23.6

---

System: 857933-349-R-J2-PDC complex spheroid viability
METHOD SUMMARY: Anticancer human tumor 857933-349-R-J2-PDC cell line growth inhibition [POLQ];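 note: spheroids exposed to compounds for seven days before readout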
COND: curve of first compound; second compound 0.0316 µM
pIC50: −log10 of the molar value.
Quick reference for pIC50 among some compounds

Known results for compounds:
CC(=O)O[C@H]1C(=O)[C@@]2(C)[C@H]([C@H](OC(=O)c3ccccc3)[C@]3(O)C[C@H](OC(=O)[C@H](O)[C@@H](NC(=O)c4ccccc4)c4ccccc4)C(C)=C1C3(C)C)[C@]1(OC(C)=O)CO[C@@H]1C[C@@H]2O + Nc1ccc(C#CCN(C(=O)Cc2ncc(C(F)(F)F)cc2C(F)(F)F)c2ccc(F)cc2)nn1
> 8.02
C#Cc1c(F)ccc2cc(O)cc(-c3ncc4c(N5CC6CCC(C5)N6)nc(OCC56CCCN5CC(F)C6)nc4c3F)c12 (centres undefined) + COC1C(OC(N)=O)C(O)C(Oc2ccc3c(O)c(NC(=O)c4ccc(O)c(CC=C(C)C)c4)c(=O)oc3c2C)OC1(C)C
< 5.00

Data request: Consider the compound CC[C@@]1(O)C(=O)OCc2c1cc1n(c2=O)Cc2cc3c(CN(C)C)c(O)ccc3nc2-1 + COC1C(OC(N)=O)C(O)C(Oc2ccc3c(O)c(NC(=O)c4ccc(O)c(CC=C(C)C)c4)c(=O)oc3c2C)OC1(C)C . State its measured pIC50.
Data returned: < 7.00

Data request: Consider the compound CC1COCCN1c1cc(C2(O)CC3CCC(C2)O3)c2cnn(-c3ccn[nH]3)c2n1 (centres undefined) + COC1C(OC(N)=O)C(O)C(Oc2ccc3c(O)c(NC(=O)c4ccc(O)c(CC=C(C)C)c4)c(=O)oc3c2C)OC1(C)C . State its measured pIC50.
Data returned: 6.60

Data request: Consider the compound CNCc1ccc(-c2[nH]c3cc(F)cc4c3c2CCNC4=O)cc1 + Nc1ccc(C#CCN(C(=O)Cc2ncc(C(F)(F)F)cc2C(F)(F)F)c2ccc(F)cc2)nn1 . State its measured pIC50.
Data returned: < 5.00

Data request: Consider the compound Cn1ncnc1[C@H]1c2n[nH]c(=O)c3cc(F)cc(c23)N[C@@H]1c1ccc(F)cc1 + Cc1cccc(N(C)C(=O)C2C(O)CCN2c2nc(C)cc(C(F)(F)F)c2C#N)c1 . State its measured pIC50.
Data returned: < 7.00

Data request: Consider the compound Nc1ccn(C2OC(CO)C(O)C2(F)F)c(=O)n1 (centres undefined) + COC1C(OC(N)=O)C(O)C(Oc2ccc3c(O)c(NC(=O)c4ccc(O)c(CC=C(C)C)c4)c(=O)oc3c2C)OC1(C)C . State its measured pIC50.
Data returned: 6.80

Data request: Consider the compound O=C(c1cc(Cc2n[nH]c(=O)c3ccccc23)ccc1F)N1CCN(C(=O)C2CC2)CC1 + COC1C(OC(N)=O)C(O)C(Oc2ccc3c(O)c(NC(=O)c4ccc(O)c(CC=C(C)C)c4)c(=O)oc3c2C)OC1(C)C . State its measured pIC50.
Data returned: < 5.00

Data request: Consider the compound CC1COCCN1c1cc(C2(S(C)(=N)=O)CC2)nc(-c2ccnc3[nH]ccc23)n1 (centres undefined) + COC1C(OC(N)=O)C(O)C(Oc2ccc3c(O)c(NC(=O)c4ccc(O)c(CC=C(C)C)c4)c(=O)oc3c2C)OC1(C)C . State its measured pIC50.
Data returned: 5.32

---

Test system: 857933-349-R-J2-PDC complex spheroid viability
METHOD SUMMARY: Anticancer human tumor 857933-349-R-J2-PDC cell line growth inhibition [POLQ];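 note: spheroids exposed to compounds for seven days before readout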
COND: curve of first compound; second compound 0.0316 µM
pIC50: −log10 of the molar value.
OBSERVABLE: pIC50

CC(C)n1c(=O)n(C)c2cnc3cc(F)c(-c4ccc(OCCCN5CCCCC5)nc4)cc3c21 + COC1C(OC(N)=O)C(O)C(Oc2ccc3c(O)c(NC(=O)c4ccc(O)c(CC=C(C)C)c4)c(=O)oc3c2C)OC1(C)C
< 5.00
C=CC(=O)N1CCN(c2nc(=O)n(-c3c(C)ccnc3C(C)C)c3nc(-c4c(O)cccc4F)c(F)cc23)C(C)C1 (stereo not drawn) + Cc1cccc(N(C)C(=O)C2C(O)CCN2c2nc(C)cc(C(F)(F)F)c2C#N)c1
< 5.00

Let us examine a further case.
Data request: Consider the compound Cn1ncnc1[C@H]1c2n[nH]c(=O)c3cc(F)cc(c23)N[C@@H]1c1ccc(F)cc1 + COC1C(OC(N)=O)C(O)C(Oc2ccc3c(O)c(NC(=O)c4ccc(O)c(CC=C(C)C)c4)c(=O)oc3c2C)OC1(C)C . State its measured pIC50.
Data returned: < 7.00

---

Test system: 857933-349-R-J2-PDC complex spheroid viability
METHOD SUMMARY: Anticancer human tumor 857933-349-R-J2-PDC cell line growth inhibition [POLQ];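 note: spheroids exposed to compounds for seven days before readout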
COND: second compound 3.16 µM; first compound 0.1 µM; stronger effect = lower value
Please assign Condition not met whenever viability, T/C is at or above 90%, and Condition met whenever it is below.

CNCc1ccc(-c2[nH]c3cc(F)cc4c3c2CCNC4=O)cc1 + Nc1ccc(C#CCN(C(=O)Cc2ncc(C(F)(F)F)cc2C(F)(F)F)c2ccc(F)cc2)nn1
Condition met
COc1cc(C2c3cc4c(cc3C(OC3OC5COC(C)OC5C(O)C3O)C3COC(=O)C23)OCO4)cc(OC)c1O (stereo not given) + Nc1ccc(C#CCN(C(=O)Cc2ncc(C(F)(F)F)cc2C(F)(F)F)c2ccc(F)cc2)nn1
Condition met

--- query ---
Data request: Input C#Cc1c(F)ccc2cc(O)cc(-c3ncc4c(N5CC6CCC(C5)N6)nc(OCC56CCCN5CC(F)C6)nc4c3F)c12 (stereo not given) + COC1C(OC(N)=O)C(O)C(Oc2ccc3c(O)c(NC(=O)c4ccc(O)c(CC=C(C)C)c4)c(=O)oc3c2C)OC1(C)C ; condition: viability, T/C strictly below 90%. Does it hold?
Data returned: Condition not met

---

System: 857933-349-R-J2-PDC complex spheroid viability
METHOD SUMMARY: Anticancer human tumor 857933-349-R-J2-PDC cell line growth inhibition [POLQ];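 note: spheroids exposed to compounds for seven days before readout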
COND: curve of first compound; second compound 0.0316 µM
Please assign label 0 whenever IC50 is at or above 0.7 µM, and label 1 whenever it is below.

Would you please look over these solved cases?
COc1cc2cc(C(=O)CCC(=O)O)sc2cc1OC + Nc1ccc(C#CCN(C(=O)Cc2ncc(C(F)(F)F)cc2C(F)(F)F)c2ccc(F)cc2)nn1
label 0
CC[C@@]1(O)C(=O)OCc2c1cc1n(c2=O)Cc2cc3c(CN(C)C)c(O)ccc3nc2-1 + Cc1cccc(N(C)C(=O)C2C(O)CCN2c2nc(C)cc(C(F)(F)F)c2C#N)c1
label 1
C=CCn1c(=O)c2cnc(Nc3ccc(N4CCN(C)CC4)cc3)nc2n1-c1cccc(C(C)(C)O)n1 + Nc1ccc(C#CCN(C(=O)Cc2ncc(C(F)(F)F)cc2C(F)(F)F)c2ccc(F)cc2)nn1
label 0
CC(=O)O[C@H]1C(=O)[C@@]2(C)[C@H]([C@H](OC(=O)c3ccccc3)[C@]3(O)C[C@H](OC(=O)[C@H](O)[C@@H](NC(=O)c4ccccc4)c4ccccc4)C(C)=C1C3(C)C)[C@]1(OC(C)=O)CO[C@@H]1C[C@@H]2O + COC1C(OC(N)=O)C(O)C(Oc2ccc3c(O)c(NC(=O)c4ccc(O)c(CC=C(C)C)c4)c(=O)oc3c2C)OC1(C)C
label 1
COc1ccc([C@@H](O)c2cc(-c3ncnc4cc(N5CCOCC5)ccc34)c(F)cc2Cl)nn1 + COC1C(OC(N)=O)C(O)C(Oc2ccc3c(O)c(NC(=O)c4ccc(O)c(CC=C(C)C)c4)c(=O)oc3c2C)OC1(C)C
label 0

Data request: Input COc1cccc(OCCCN)c1-c1cc(Nc2cnc(C#N)cn2)n[nH]1 + Cc1cccc(N(C)C(=O)C2C(O)CCN2c2nc(C)cc(C(F)(F)F)c2C#N)c1 ; condition: IC50 strictly below 0.7 µM. Does it hold?
Data returned: label 0

Data request: Input CCc1cc2c(N3CCc4c(cc(Cn5ccnc5)cc4-c4cn(C)nc4C(F)(F)F)C3=O)cc(C)nc2c(OC)n1 + Cc1cccc(N(C)C(=O)C2C(O)CCN2c2nc(C)cc(C(F)(F)F)c2C#N)c1 ; condition: IC50 strictly below 0.7 µM. Does it hold?
Data returned: label 0

Data request: Input CC1COCCN1c1cc(C2(S(C)(=N)=O)CC2)nc(-c2ccnc3[nH]ccc23)n1 (configuration not stated) + Cc1cccc(N(C)C(=O)C2C(O)CCN2c2nc(C)cc(C(F)(F)F)c2C#N)c1 ; condition: IC50 strictly below 0.7 µM. Does it hold?
Data returned: label 0

Data request: Input CC1COCCN1c1cc(C2(S(C)(=N)=O)CC2)nc(-c2ccnc3[nH]ccc23)n1 (configuration not stated) + Nc1ccc(C#CCN(C(=O)Cc2ncc(C(F)(F)F)cc2C(F)(F)F)c2ccc(F)cc2)nn1 ; condition: IC50 strictly below 0.7 µM. Does it hold?
Data returned: label 0

Data request: Input COc1cc(C2c3cc4c(cc3C(OC3OC5COC(C)OC5C(O)C3O)C3COC(=O)C23)OCO4)cc(OC)c1O (configuration not stated) + Cc1cccc(N(C)C(=O)C2C(O)CCN2c2nc(C)cc(C(F)(F)F)c2C#N)c1 ; condition: IC50 strictly below 0.7 µM. Does it hold?
Data returned: label 0

Data request: Input O=c1[nH]cc(F)c(=O)[nH]1 + COC1C(OC(N)=O)C(O)C(Oc2ccc3c(O)c(NC(=O)c4ccc(O)c(CC=C(C)C)c4)c(=O)oc3c2C)OC1(C)C ; condition: IC50 strictly below 0.7 µM. Does it hold?
Data returned: label 0

Data request: Input COc1cccc2c1C(=O)c1c(O)c3c(c(O)c1C2=O)CC(O)(C(=O)CO)CC3OC1CC(N)C(O)C(C)O1 (configuration not stated) + COC1C(OC(N)=O)C(O)C(Oc2ccc3c(O)c(NC(=O)c4ccc(O)c(CC=C(C)C)c4)c(=O)oc3c2C)OC1(C)C ; condition: IC50 strictly below 0.7 µM. Does it hold?
Data returned: label 1
